src = patent US9604935B2

assay details: Pharmacokinetic evaluation in rats
Format: in vivo
run conditions: male, Sprague-Dawley, rat, plasma, po, 3 mg/kg, 3 mg/kg by gavage, group G3, rat 10
What AUC(0-t) was measured for each of the following?
One number for each entry, in ng·h/mL.

Use the examples below as a reference point.
compound | display unit | val
N#CCNC(=O)c1ccc(-c2ccnc(Nc3ccc(N4CCOCC4)cc3)n2)cc1 [example 9, reference compound] | ng·h/mL | 1800
[2H]C1([2H])OC([2H])([2H])C([2H])([2H])N(c2ccc(Nc3nccc(-c4ccc(C(=O)NCC#N)cc4)n3)cc2)C1([2H])[2H] | ng·h/mL | 3250

Now for another entry.
Problem: Entry under review: [2H]C([2H])(C#N)NC(=O)c1ccc(-c2ccnc(Nc3ccc(N4C([2H])([2H])C([2H])([2H])OC([2H])([2H])C4([2H])[2H])cc3)n2)cc1 . Reported AUC(0-t)?
Result: 2300

* * *

assay details: Pharmacokinetic evaluation in rats
Assay type: in vivo
run conditions: male, Sprague-Dawley, rat, plasma, po, 3 mg/kg, 3 mg/kg by gavage, group G1, rat 2
Would you mind telling me the reported Tmax of each entry?
One number for each entry, in h.

Recorded Tmax, per entry:
compound | Tmax [h]
[2H]C([2H])(C#N)NC(=O)c1ccc(-c2ccnc(Nc3ccc(N4CCOCC4)cc3)n2)cc1 | 4
[2H]C([2H])(C#N)NC(=O)c1ccc(-c2ccnc(Nc3ccc(N4CC([2H])([2H])OC([2H])([2H])C4)cc3)n2)cc1 | 4

Problem: Name the reported Tmax value associated with the compound N#CCNC(=O)c1ccc(-c2ccnc(Nc3ccc(N4CCOCC4)cc3)n2)cc1 [example 9, reference compound]
Result: 4

* * *

Task for the reader: assign each of the following molecules its reported AUC(0-t).
assay details: Pharmacokinetic evaluation in rats
Format: in vivo
run conditions: male, Sprague-Dawley, rat, plasma, po, 3 mg/kg, 3 mg/kg by gavage, group G1, Mean of 4 rats
Give bare numbers, in ng·h/mL.

The examples below pair each entry with its known result.
molecule | AUC(0-t) (ng·h/mL)
[2H]C([2H])(C#N)NC(=O)c1ccc(-c2ccnc(Nc3ccc(N4CC([2H])([2H])OC([2H])([2H])C4)cc3)n2)cc1 [example 6] | 1900
[2H]C([2H])(C#N)NC(=O)c1ccc(-c2ccnc(Nc3ccc(N4CCOCC4)cc3)n2)cc1 [example 8] | 2090

Now look at this one.
Problem: For N#CCNC(=O)c1ccc(-c2ccnc(Nc3ccc(N4CCOCC4)cc3)n2)cc1 [example 9, reference compound] , what is its reported AUC(0-t)?
Result: 1620

* * *

Hi there, I'd appreciate the recorded AUC(0-t) for every entry that follows.
assay details: Pharmacokinetic evaluation in rats
Format: in vivo
run conditions: male, Sprague-Dawley, rat, plasma, po, 3 mg/kg, 3 mg/kg by gavage, group G1, rat 4
Give bare numbers, in ng·h/mL.

The cases that follow already have their AUC(0-t) on record.
molecule | val
[2H]C([2H])(C#N)NC(=O)c1ccc(-c2ccnc(Nc3ccc(N4CCOCC4)cc3)n2)cc1 [example 8] | 1630
N#CCNC(=O)c1ccc(-c2ccnc(Nc3ccc(N4CCOCC4)cc3)n2)cc1 [example 9, reference compound] | 1320

Problem: For the molecule [2H]C([2H])(C#N)NC(=O)c1ccc(-c2ccnc(Nc3ccc(N4CC([2H])([2H])OC([2H])([2H])C4)cc3)n2)cc1 [example 6] , what AUC(0-t) is on record?
Result: 1520

* * *

assay details: Pharmacokinetic evaluation in rats
Assay type: in vivo
run conditions: male, Sprague-Dawley, rat, plasma, po, 3 mg/kg, 3 mg/kg by gavage, group G3, rat 11
What Cmax was measured for each of the following?
Give bare numbers, in ng/mL.

Study these solved cases before continuing.
molecule | measured parameter | display unit | val
N#CCNC(=O)c1ccc(-c2ccnc(Nc3ccc(N4CCOCC4)cc3)n2)cc1 [example 9, reference compound] | Cmax | ng/mL | 276
[2H]C([2H])(C#N)NC(=O)c1ccc(-c2ccnc(Nc3ccc(N4C([2H])([2H])C([2H])([2H])OC([2H])([2H])C4([2H])[2H])cc3)n2)cc1 [example 3] | Cmax | ng/mL | 329

# evaluate next
Problem: I am curious: what Cmax value has been reported for [2H]C1([2H])OC([2H])([2H])C([2H])([2H])N(c2ccc(Nc3nccc(-c4ccc(C(=O)NCC#N)cc4)n3)cc2)C1([2H])[2H] [example 1] ?
Result: 476

* * *

Exercise: for every item that follows, state its recorded AUC(0-inf).
assay details: Pharmacokinetic evaluation in rats
Format: in vivo
run conditions: male, Sprague-Dawley, rat, plasma, po, 3 mg/kg, 3 mg/kg by gavage, group G1, rat 1, read-out: AUCINF_obs

// worked examples, AUC(0-inf) included
compound | measured parameter | val
[2H]C([2H])(C#N)NC(=O)c1ccc(-c2ccnc(Nc3ccc(N4CC([2H])([2H])OC([2H])([2H])C4)cc3)n2)cc1 | AUC(0-inf) | 2740 ng·h/mL
N#CCNC(=O)c1ccc(-c2ccnc(Nc3ccc(N4CCOCC4)cc3)n2)cc1 [example 9, reference compound] | AUC(0-inf) | 2300 ng·h/mL

Read the next record carefully.
Problem: So what's the measured AUC(0-inf) for this one? [2H]C([2H])(C#N)NC(=O)c1ccc(-c2ccnc(Nc3ccc(N4CCOCC4)cc3)n2)cc1
Result: 3100 ng·h/mL

* * *

assay details: Pharmacokinetic evaluation in rats
Type: in vivo
run conditions: male, Sprague-Dawley, rat, plasma, po, 3 mg/kg, 3 mg/kg by gavage, group G2, rat 7
For each of the compounds below, state its Cmax.
Numbers only, in ng/mL.

compound | Cmax, ng/mL
[2H]C1([2H])COCC([2H])([2H])N1c1ccc(Nc2nccc(-c3ccc(C(=O)NCC#N)cc3)n2)cc1 | 875

Problem: Given the compound N#CCNC(=O)c1ccc(-c2ccnc(Nc3ccc(N4CCOCC4)cc3)n2)cc1 [example 9, reference compound] , what is its reported Cmax?
Result: 514

* * *

assay details: Pharmacokinetic evaluation in rats
Format: in vivo
run conditions: male, Sprague-Dawley, rat, plasma, po, 3 mg/kg, 3 mg/kg by gavage, group G2 (Table 2), mean±SD
measured parameter: AUC(0-t) (ng·h/mL)
Give bare numbers, in ng·h/mL.

molecule | AUC(0-t) / ng·h/mL
[2H]C1([2H])COCC([2H])([2H])N1c1ccc(Nc2nccc(-c3ccc(C(=O)NCC#N)cc3)n2)cc1 | 5390

Please examine the following record next.
Problem: I am curious: what AUC(0-t) value has been reported for N#CCNC(=O)c1ccc(-c2ccnc(Nc3ccc(N4CCOCC4)cc3)n2)cc1 [example 9, reference compound] ?
Result: 3210

* * *

For each record, write down the corresponding AUC(0-inf).
assay details: Pharmacokinetic evaluation in rats
Type: in vivo
run conditions: male, Sprague-Dawley, rat, plasma, po, 3 mg/kg, 3 mg/kg by gavage, group G3, rat 12, read-out: AUCINF_obs
Give bare numbers, in ng·h/mL.

Would you please look over these solved cases?
molecule | AUC(0-inf), ng·h/mL
N#CCNC(=O)c1ccc(-c2ccnc(Nc3ccc(N4CCOCC4)cc3)n2)cc1 [example 9, reference compound] | 1840
[2H]C([2H])(C#N)NC(=O)c1ccc(-c2ccnc(Nc3ccc(N4C([2H])([2H])C([2H])([2H])OC([2H])([2H])C4([2H])[2H])cc3)n2)cc1 | 2350

Problem: Which AUC(0-inf) value is on record for [2H]C1([2H])OC([2H])([2H])C([2H])([2H])N(c2ccc(Nc3nccc(-c4ccc(C(=O)NCC#N)cc4)n3)cc2)C1([2H])[2H] ?
Result: 3320

* * *

assay details: Pharmacokinetic evaluation in rats
Type: in vivo
run conditions: male, Sprague-Dawley, rat, plasma, po, 3 mg/kg, 3 mg/kg by gavage, group G3 (Table 3), mean±SD
Method: 12 male Sprague-Dawley rats, 7-8 weeks old, of approximately 200 g body weight, were divided into three groups, four in each group. Rats were feed with standard feed, and were given water, and were started to fast 16 hours before the test. […] After blood sampling, the tube was gently inverted at least 5 times immediately to ensure adequate mixing, and was placed on ice. […] The concentration of the compound of the invention in plasma was determined with LC-MS/MS. […]
measured parameter: AUC(0-t)
Give the number first and the unit second.

molecule | measured parameter | val
[2H]C([2H])(C#N)NC(=O)c1ccc(-c2ccnc(Nc3ccc(N4C([2H])([2H])C([2H])([2H])OC([2H])([2H])C4([2H])[2H])cc3)n2)cc1 | AUC(0-t) | 2720 ng·h/mL
[2H]C1([2H])OC([2H])([2H])C([2H])([2H])N(c2ccc(Nc3nccc(-c4ccc(C(=O)NCC#N)cc4)n3)cc2)C1([2H])[2H] | AUC(0-t) | 3960 ng·h/mL

Now for the molecule whose AUC(0-t) we want.
Problem: Which value of AUC(0-t) has been reported for N#CCNC(=O)c1ccc(-c2ccnc(Nc3ccc(N4CCOCC4)cc3)n2)cc1 [example 9, reference compound] in the records?
Result: 2190 ng·h/mL
